src = patent US7994334B2

# experiment: logP by HPLC on reversed-phase column (C 18), EEC Directive 79/831 Annex V.A8
# Assay type: physicochemical
# run.parameters: C 18, 40° C., 0.1% aqueous formic acid and acetonitrile
Label yes (1) when logPa >= 2; otherwise no (0).

1. Cc1cc(Oc2cccc(Cl)n2)c(C)cc1N=CN1CCCC1 : no (0)
2. Cc1cc(Oc2cccc(Br)n2)c(C)cc1N=CN1CCCC1 : no (0)
3. Cc1cc(Oc2cc(C(F)(F)F)cc(Cl)n2)c(C(C)(C)C)cc1N=CN(C)C(C)C : yes (1)
4. CCN(C)C=Nc1ccc(Oc2cc(-c3ccccc3Cl)c(C)cn2)cc1C : yes (1)
5. Cc1cc(Oc2ccnc(C(F)(F)F)c2)c(C)cc1N=CN1CCCC1 : no (0)
6. Cc1cc(Oc2ncc(Cl)cc2Cl)c(C)cc1N=CN(C)C(C)C : yes (1)

Would you say Cc1cc(Oc2ccnc(Cl)c2)c(C)cc1N=CN1CCCC1 shows logPa at minimum 2? no (0)

Check this compound for logPa at or above 2: Cc1cc(Oc2ccc(C#N)cn2)c(C)cc1N=CN1CCCC1 no (0)

====

# experiment: logP by HPLC on reversed-phase column (C 18), EEC Directive 79/831 Annex V.A8
# Type: physicochemical
# run.parameters: C 18, 40° C., 0.1% aqueous formic acid and acetonitrile
measured.quantity: logPa
API doc: respond with a numeric literal and nothing else, no unit.

Sample records with logPa:
1. CCCN(C)C=Nc1cc(C)c(Oc2cc(Cl)cc(CC)n2)cc1C : 2.00
2. CCN(C)C=Nc1cc(C)c(Oc2ccc(Cl)cn2)cc1C : 1.84
3. CCN(C)C=Nc1cc(C)c(Oc2ccc(C#N)cn2)cc1C : 1.47
4. CCc1nccc(Oc2cc(C)c(N=CN3CCCC3)cc2C)c1Cl : 1.43

Note: attention shifts to another entry.
Give its logPa value. Item: Cc1cc(Oc2cc(C(F)(F)F)cc(Cl)n2)c(C(C)C)cc1N=CN(C)C(C)C 2.97

====

# experiment: logP by HPLC on reversed-phase column (C 18), EEC Directive 79/831 Annex V.A8
# Assay type: physicochemical
# run.parameters: pH 2.3, C 18
measured.quantity: log P (pH 2.3)
// keep it numeric: no unit symbol after the value

1. CCc1nccc(Oc2cc(C)c(N)cc2C)c1Cl : 1.66

I would be grateful if you could share the reported log P (pH 2.3) for Cc1cc(Oc2cncc(Cl)c2)c(C)cc1N . 1.83

Can you look up the measured log P (pH 2.3) of CCc1nccc(Oc2cc(C)c(N=CN(C)CC)cc2C)c1Cl for me? 1.47

Name the recorded log P (pH 2.3) for CCN(C)C=Nc1cc(C)c(Oc2cc(C(F)(F)F)cc(Cl)n2)cc1C . 2.39

====

# experiment: logP by HPLC on reversed-phase column (C 18), EEC Directive 79/831 Annex V.A8
# Format: physicochemical
# run.parameters: C 18, 40° C., 0.1% aqueous formic acid and acetonitrile
measured.quantity: logPa
API note: the answer field is a bare number with no unit suffix.

Please review the following examples before continuing.
1) CCN(C)C=Nc1cc(C)c(Oc2ccc(C(F)(F)F)cn2)cc1C : 1.86
2) CCCN(C)C=Nc1cc(C)c(Oc2ccnc(C(F)(F)F)c2)cc1C : 1.75
3) CCN(C)C=Nc1cc(C)c(Oc2ccc(I)cn2)cc1C : 2.10
4) CCCN(C)C=Nc1cc(C)c(Oc2cc(C(F)(F)F)cc(Cl)n2)cc1C : 2.66
5) CCN(C)C=Nc1cc(C)c(Oc2cccc(Br)n2)cc1C : 1.89
6) CCCN(C)C=Nc1cc(C)c(Oc2ncc(Cl)cc2Cl)cc1C : 2.22
7) CCN(C)C=Nc1cc(C)c(Oc2ccnc(C(F)(F)F)c2)cc1C : 1.75
8) C=CCN(C)C=Nc1cc(C)c(Oc2ccc(C#N)cn2)cc1C : 1.56

Any idea what logPa was measured for CCN(C)C=Nc1cc(C)c(Oc2cc(-c3ccccc3Cl)c(C)cn2)cc1C ? 2.58

Entry CCN(C)C=Nc1cc(C)c(Oc2cccc(Cl)n2)cc1C : reported logPa = ? 1.78

Reported logPa for C=CCN(C)C=Nc1cc(C)c(Oc2ccnc(Cl)c2)cc1C : what is it? 1.74

Any idea what its logPa is? The molecule is CCCN(C)C=Nc1cc(C)c(Oc2ccnc(Cl)c2)cc1C 1.56
